assay.overview: Pharmacokinetics in CD-1 mice
Assay type: in vivo, mouse
cond: read-out: maximum concentration (Cmax), single oral dose of 5 mg/kg, plasma
observable: Cmax

>>> endpoint_result("CCCCCCCC/C=C1\\C=C(C(F)(F)F)c2cc(O)c(O)cc21")
"~400 nM"
